- System: P388 leukemia ip, CD2F1 mice, survival T/C
- EXPERIMENT_NOTES: NCI In Vivo Anticancer Drug Screen. Data for tumor model P388 Leukemia (intraperitoneal) in CD2F1 (CDF1) mice
- CONDITION_SET: endpoint: median survival time; dose: 25.0 mg/kg/injection; schedule: Q01DX009 (ip); vehicle: saline
Inconclusive results and toxic doses are left out. How the source made its calls: active means survival T/C of 150% or more; inactive means T/C below 125% in these data.
Response enum: T for active, F for inactive

[
  {
    "COMPOUND": "CC(CNCCN)C[Si](C)(C)C (stereo not drawn)",
    "DISCRETE_LABEL": "F"
  },
  {
    "COMPOUND": "OC(C[n+]1ccccc1)c1ccccc1 (stereo not drawn)",
    "DISCRETE_LABEL": "F"
  },
  {
    "COMPOUND": "C[Si](C)(C)N1CCCC1",
    "DISCRETE_LABEL": "F"
  },
  {
    "COMPOUND": "COCC(=O)OC",
    "DISCRETE_LABEL": "F"
  },
  {
    "COMPOUND": "CN1CCC(=C2c3ccccc3Oc3ncccc32)CC1",
    "DISCRETE_LABEL": "F"
  }
]

Short answer needed: outcome of this test for O=C(c1ccccc1)c1cccc[n+]1Cc1ccccc1 ? F

For this compound, state the assay outcome: Oc1[nH]c2ccccc2c1N=NC(=S)SCc1ccccc1 F

How did this test come out for CC(C)(C)C(=N)N ? F

Hello, I am checking results. What call was entered for COc1c(C(C)C)cc2c(c1OC)C13CCCC(C)(C)C1C(OC3=O)C2NC(=O)C(C)N(C)C (stereo not drawn) ? F

Which outcome was assigned to O=C(O)CC(=O)O.[NH-]CC[NH-].[Pt+2] in this test? T

Please let me know the test result on file for COc1ccc(OC(=O)Nc2ccc(Cl)c(C(F)(F)F)c2)c(Cl)c1 . F

Answer briefly: the call reported for COc1ccccc1N=Nc1cc(S(=O)(=O)O)c2ccccc2c1O in this assay. F

Just curious, what result did CCCCC(CC)COP(=O)(CC(CC)CCCC)OCC(CC)CCCC (stereo not drawn) get here? F
